This section presents molecules with their documented cytotoxicity at 70.5 h values.
assay: Human HepG2 cell viability assay in 384 well format; assay type: toxicity, cell-based; parameters: dose 125 nL, time 70.5 hour; concentration not given beside the values; conditions: HepG2 cells, read-out: Inhibition
Note: unit % is implicit; provide only the numeric part.

CN(C(=O)Cc1ccc(NC(=O)NC2CC2)cc1)c1ccccc1 has a reported cytotoxicity at 70.5 h of 19.9

O=C(Cn1ccc2ccc(Br)cc21)NC[C@@H]1CCCN2CCCC[C@H]12 has a reported cytotoxicity at 70.5 h of 41.4

COc1cccc(NC(=O)CN2CCN(S(C)(=O)=O)CC2)c1 has a reported cytotoxicity at 70.5 h of -8.85

CC(C)(CO)Nc1c(NCc2ccccc2)c(=O)c1=O has a reported cytotoxicity at 70.5 h of 0.361

Cc1cnn(CC(C)NCc2ccc(OCc3cscn3)cc2)c1 (stereo unspecified) has a reported cytotoxicity at 70.5 h of -6.24

Turning now to a further molecule:
O=C(Cc1cccs1)N1CC[C@H]2[C@H]1CCN2Cc1cccnc1 has a reported cytotoxicity at 70.5 h of -6.88

###

experiment: Human HepG2 cell viability assay in 384 well format; type: toxicity, cell-based; set-up: dose 125 nL, time 70.5 hour; concentration not given beside the values; settings: HepG2 cells, read-out: Inhibition
Readout: cytotoxicity at 70.5 h (%)
Note: unit % is implicit; provide only the numeric part.

Known results for molecules:
CC1N(c2cnn(C)c2)C(=O)COC12CCN(c1ncccn1)CC2 (stereo unspecified) has a reported cytotoxicity at 70.5 h of -1.11

CC(NC(=O)NCCCn1cncn1)c1ccc(F)cc1 (stereo unspecified) has a reported cytotoxicity at 70.5 h of -4.64

Others:
COC(=O)N1CCC(c2nnc(Cn3ccnc3)n2C)CC1 has a reported cytotoxicity at 70.5 h of -2.68

C[C@@H]1CN(C(=O)CCN2CCOCC2)CC[C@]1(C)O has a reported cytotoxicity at 70.5 h of -2.33

CN(CC(=O)N1CCC(Oc2ccc(C(F)(F)F)cn2)CC1)S(C)(=O)=O has a reported cytotoxicity at 70.5 h of 0.51

Cc1cn(Cc2nc(CC(C)C)nn2-c2ccccn2)c(=O)[nH]c1=O has a reported cytotoxicity at 70.5 h of -1.31

CCc1ncc2c(n1)CN(c1cc(NCCO)nc(N)n1)C2 has a reported cytotoxicity at 70.5 h of -3.48

Clc1ccc2cccnc2c1CNC1CCc2ncnn2C1 (stereo unspecified) has a reported cytotoxicity at 70.5 h of -5.27

COc1ccc(-c2cn(CCSc3ncn[nH]3)nn2)cn1 has a reported cytotoxicity at 70.5 h of -9.67

COCCN1CCN(Cc2nnc(-c3occc3C)o2)CC1 has a reported cytotoxicity at 70.5 h of -6.39

Cc1ccc2[nH]c(CO[C@H]3CN(C(=O)C4CC4)C[C@H]3F)nc2c1 has a reported cytotoxicity at 70.5 h of 3.41

###

experiment: Human HepG2 cell viability assay in 384 well format; assay type: toxicity, cell-based; set-up: dose 125 nL, time 70.5 hour; concentration not given beside the values; settings: HepG2 cells, read-out: Inhibition
This section presents molecules with their documented cytotoxicity at 70.5 h values.
Note: unit % is implicit; provide only the numeric part.

Known results for molecules:
Cc1noc(C)c1C(=O)N1CCSc2ccc(Cl)cc21 has a reported cytotoxicity at 70.5 h of 11.5

COc1c(Br)cc(Br)cc1CNC(C)Cn1cccn1 (stereo unspecified) has a reported cytotoxicity at 70.5 h of 16.4

CCc1noc(CN(C)C(=O)C2COc3ccccc3C2)n1 (stereo unspecified) has a reported cytotoxicity at 70.5 h of -0.861

CC(=O)N1CCCN(C(=O)c2cnn(-c3ccccc3Cl)c2)CC1 has a reported cytotoxicity at 70.5 h of -17.1

Cc1cc(C)c2nc(C)c(C(=O)N3CCC(N4CCCC4)CC3)cc2c1 has a reported cytotoxicity at 70.5 h of -0.523

CS(=O)(=O)CCC(=O)N1CCC(c2cccc(F)c2)C1 (stereo unspecified) has a reported cytotoxicity at 70.5 h of 5.28

Others:
O=S(=O)(c1cccnc1)N1C[C@@H]2CC[C@H](C1)N(Cc1ccccc1)C2 has a reported cytotoxicity at 70.5 h of -6.7

CC(C)n1nnc(CC(=O)NCC2(c3cccc(F)c3)CCCC2)n1 has a reported cytotoxicity at 70.5 h of 15.1

Nc1ccc(C(=O)N2CCCC(c3nccn3Cc3cscn3)C2)cn1 (stereo unspecified) has a reported cytotoxicity at 70.5 h of -3.06

CN(C)C(CNC(=O)c1[nH]nc(C2CC2)c1Br)C1CC1 (stereo unspecified) has a reported cytotoxicity at 70.5 h of -5.45

CC1=C[C@@H](CN2CCCC2)[C@H](C(C)C)C[C@H]1Cc1nnc(C)o1 has a reported cytotoxicity at 70.5 h of -4.38
